# Tested on: Progesterone receptor (Mesocricetus auratus)
# PROTOCOL_TEXT: Percent inhibition of [3H]- progesterone binding to Syrian golden hamster uterine cytosol progesterone receptor, at 10e-6 M compound concentration
# ASSAY_SETUP: at 1 µM
PARAMETER: inhibition
Remember to put the unit after the number in your answer.

COC(=O)C1=C(C)N=C(C)/C(=C(\O)OC)C1c1ccc(N)c([N+](=O)[O-])c1 (stereo not drawn)    5%
COC(=O)C1=C(C)N=C(C)/C(=C(/O)OC)C1c1ccc(C=O)cc1 (stereo not drawn)    10%
COC(=O)C1=C(C)N=C(C)/C(=C(/O)OC)C1c1ccc2nc(-c3ccc(O)c(OC)c3)n(Cc3ccc(O)c(OC)c3)c2c1 (stereo not drawn)    18%
CNc1ccc(C2C(C(=O)OC)=C(C)N=C(C)/C2=C(/O)OC)cc1[N+](=O)[O-] (stereo not drawn)    13%
COC(=O)C1=C(C)N=C(C)/C(=C(/O)OC)C1c1ccc(Cl)c([N+](=O)[O-])c1 (stereo not drawn)    14%
COC(=O)C1=C(C)N=C(C)/C(=C(\O)OC)C1c1ccc(C(=O)OC)cc1 (stereo not drawn)    32%

Problem: Find the recorded inhibition belonging to COC(=O)C1=C(C)N=C(C)/C(=C(/O)OC)C1c1ccc(NCc2ccccc2)c([N+](=O)[O-])c1 (stereo not drawn) and report it.
Result: 6%

Problem: Find the recorded inhibition belonging to COC(=O)C1=C(C)N=C(C)/C(=C(/O)OC)C1c1ccc2nc3n(c2c1)C(=O)c1ccccc1-3 (stereo not drawn) and report it.
Result: 10%

Problem: Find the recorded inhibition belonging to COC(=O)Nc1nc2cc(C3C(C(=O)OC)=C(C)N=C(C)/C3=C(/O)OC)ccc2[nH]1 (stereo not drawn) and report it.
Result: 15%

Problem: Find the recorded inhibition belonging to COC(=O)C1=C(C)N=C(C)/C(=C(\O)OC)C1c1cc2cc(-c3c(C)oc(C)c3C(=O)OC)ccc2nc1Cl (stereo not drawn) and report it.
Result: 20%

Problem: Find the recorded inhibition belonging to COC(=O)C1=C(C)N=C(C)/C(=C(/O)OC)C1c1ccc2[nH]nnc2c1 (stereo not drawn) and report it.
Result: 18%

Problem: Find the recorded inhibition belonging to COC(=O)C1=C(C)N=C(C)/C(=C(/O)OC)C1c1cc2ccccc2n2nnnc12 (stereo not drawn) and report it.
Result: 9%

Problem: Find the recorded inhibition belonging to COC(=O)C1=C(C)N=C(C)/C(=C(/O)OC)C1c1ccc2nc(-c3ccc(OC)c(OC)c3)n(Cc3ccc(OC)c(OC)c3)c2c1 (stereo not drawn) and report it.
Result: 10%
